Ref: paper PMC8389922

I'd appreciate it if you could supply β-turn values for the items below.
experimentalDetails: CD spectroscopy, secondary structure content (DichroWeb)
Type: physicochemical
assaySetup: CD in water, peptide 50 μM, 25 °C, DichroWeb
Bridge positions count the residues as written; N and C are the ends. Square brackets hold non-standard residues; d marks the D form. Peptide text beside a SMILES is read from it.
Give bare numbers, in %.

Example cases with answers are listed next.
CC[C@H](C)[C@H](NC(=O)[C@H](CCCNC(=N)N)NC(=O)[C@]1(C)CCCC=CCCC[C@](C)(NC(=O)[C@H](Cc2ccccc2)NC(=O)[C@H](Cc2c[nH]c3ccccc23)NC(=O)[C@@H]2CCCN2C(=O)[C@@H](NC(=O)[C@@H](N)Cc2ccccc2)C(C)C)C(=O)N[C@@H](CCCCN)C(=O)N[C@@H](Cc2ccccc2)C(=O)N[C@H](CC(C)C)C(=O)N1)C(=O)N[C@@H](CC(C)C)C(N)=O : 16
CC[C@H](C)[C@H](NC(=O)[C@H](CCCNC(=N)N)NC(=O)[C@@H]1CCCCn2cc(nn2)C[C@H](NC(=O)[C@H](Cc2ccccc2)NC(=O)[C@H](Cc2c[nH]c3ccccc23)NC(=O)[C@@H]2CCCN2C(=O)[C@@H](NC(=O)[C@@H](N)Cc2ccccc2)C(C)C)C(=O)N[C@@H](CCCCN)C(=O)N[C@@H](Cc2ccccc2)C(=O)NC(CC(C)C)C(=O)N1)C(=O)N[C@@H](CC(C)C)C(N)=O (stereo in doubt) : 16
CC[C@H](C)[C@H](NC(=O)[C@H](CCCNC(=N)N)NC(=O)[C@@H]1CCC(=O)NCCCC[C@H](NC(=O)[C@H](Cc2ccccc2)NC(=O)[C@H](Cc2c[nH]c3ccccc23)NC(=O)[C@@H]2CCCN2C(=O)[C@@H](NC(=O)[C@@H](N)Cc2ccccc2)C(C)C)C(=O)N[C@@H](CCCCN)C(=O)N[C@@H](Cc2ccccc2)C(=O)N[C@H](CC(C)C)C(=O)N1)C(=O)N[C@@H](CC(C)C)C(N)=O [compound 12] (H-FVPWFKKF[dL]ERIL-NH2; lactam 6-10) : 15

Here is another compound to look at.
// β-turn value for CC[C@H](C)[C@H](NC(=O)[C@H](CCCNC(=N)N)NC(=O)[C@@H]1CCCCNC(=O)CC[C@H](NC(=O)[C@H](Cc2ccccc2)NC(=O)[C@H](Cc2c[nH]c3ccccc23)NC(=O)[C@@H]2CCCN2C(=O)[C@@H](NC(=O)[C@@H](N)Cc2ccccc2)C(C)C)C(=O)N[C@@H](CCCCN)C(=O)N[C@@H](Cc2ccccc2)C(=O)N[C@H](CC(C)C)C(=O)N1)C(=O)N[C@@H](CC(C)C)C(N)=O [compound 24] (H-FVPWFEKF[dL]KRIL-NH2; lactam 6-10) : 17

====

Task for the reader: assign each of the following molecules its reported MIC A. baumannii ATCC 19606.
Test system: A. baumannii ATCC 19606
Assay type: cell-based, Acinetobacter baumannii
Procedure: The antimicrobial activity of peptides 9–26 was assessed against a range of reference bacterial strains such as S. aureus ATCC 25923, Staphylococcus epidermidis ATCC 12228, Bacillus megaterium Bm11, E. coli ATCC 25922, P. aeruginosa ATCC 27853, and A. baumannii ATCC 19606 by the broth microdilution assay to determine the minimal growth inhibitory concentration (MIC, Table 1).[59] […]
Bridge positions count the residues as written; N and C are the ends. Square brackets hold non-standard residues; d marks the D form. Triazole bridges read from a SMILES are 1,4-linked. Peptide text beside a SMILES is read from it. Lys(N3) = [N-]=[N+]=NCCCC[C@H](N)C(=O)O; Pra = C#CC[C@H](N)C(=O)O
Answers are plain numbers, in µM.

CC[C@H](C)[C@@H]1NC(=O)[C@H](CCCNC(=N)N)NC(=O)CNC(=O)[C@@H](CC(C)C)NC(=O)[C@H](Cc2ccccc2)NC(=O)[C@H](CCCCN)NC(=O)[C@@H](NC(=O)[C@H](Cc2ccccc2)NC(=O)[C@H](Cc2c[nH]c3ccccc23)NC(=O)[C@@H]2CCCN2C(=O)[C@@H](NC(=O)[C@@H](N)Cc2ccccc2)C(C)C)Cc2cn(nn2)CCCC[C@@H](C(N)=O)NC1=O [compound 22] (H-FVPWF[Pra]KF[dL]GRI[Lys(N3)]-NH2; triazole 6-13) : 100

Next molecule, MIC A. baumannii ATCC 19606 to be filled in.
Record CC[C@H](C)[C@H](NC(=O)[C@H](CCCNC(=N)N)NC(=O)[C@@H]1CCCCNC(=O)CC[C@H](NC(=O)[C@H](Cc2ccccc2)NC(=O)[C@H](Cc2c[nH]c3ccccc23)NC(=O)[C@@H]2CCCN2C(=O)[C@@H](NC(=O)[C@@H](N)Cc2ccccc2)C(C)C)C(=O)N[C@@H](CCCCN)C(=O)N[C@@H](Cc2ccccc2)C(=O)N[C@H](CC(C)C)C(=O)N1)C(=O)N[C@@H](CC(C)C)C(N)=O [compound 24] (H-FVPWFEKF[dL]KRIL-NH2; lactam 6-10) , field MIC A. baumannii ATCC 19606: 3.12
